// provenance: patent US20220033501A1

Record form. Attribute: OD450. Fill in for each entry.
Tested target: T1, murine TIM-3 extracellular domain protein with hFc tag (mTIM-3-hFc) (mouse, UniProt Q8VIM0 29-191)
T1 construct: also called mouse TIM-3 extracellular domain protein; not shown: human IgG Fc fragment (hFc) of the pCpC vector
T1 chain: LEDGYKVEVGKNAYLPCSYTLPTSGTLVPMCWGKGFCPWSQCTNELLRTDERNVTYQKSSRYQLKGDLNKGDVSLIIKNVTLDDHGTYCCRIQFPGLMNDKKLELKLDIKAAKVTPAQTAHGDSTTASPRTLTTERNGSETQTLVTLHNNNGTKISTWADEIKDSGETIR
Experiment description: ELISA, coated mouse TIM-3 ECD protein, 0.0007 nM antibody
Numbers only.

Recorded results for 3 binders are shown here.
Binder: 134H3G6 fully human TIM-3 antibody (human IgG4, kappa) (antibody, V domains shown) VH: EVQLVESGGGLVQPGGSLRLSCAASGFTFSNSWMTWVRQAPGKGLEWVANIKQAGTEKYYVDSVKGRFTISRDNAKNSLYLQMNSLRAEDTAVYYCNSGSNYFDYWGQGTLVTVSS VL: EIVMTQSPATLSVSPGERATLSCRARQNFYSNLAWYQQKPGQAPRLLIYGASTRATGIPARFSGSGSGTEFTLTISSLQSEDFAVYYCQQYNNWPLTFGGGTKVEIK
OD450: 0.21
--
Binder: 34B6D8 fully human TIM-3 antibody (human IgG4, kappa) (antibody, V domains shown) VH: EVQLVESGGGLVQPGGSLRLSCAASGFTFSTYWMTWVRQAPGKRLEWVANIKQGGGDKYYVDSVKGRFTISTDNAKNSLYLQMNSLRAEDTAVYYCARGSNWFDPWGQGTLVTVSS VL: EIVMTQSPATLSMSPGERATLSCRASQSVYDNLAWYQQKPGQAPRLLIYGASTRATGIPARFSGSGSGTEFTLTISSLQSEDFALYYCQQYTHWPITFGQGTRLEIK
OD450: 0.24
--
Binder: 39E5H1 fully human TIM-3 antibody (human IgG4, kappa) (antibody, V domains shown) VH: EVQLVESGGGLVQPGGSLRLSCAASGFTFSSYWMSWVRQAPGKGLEWVANIKRGGSERYYVDSVKGRFTISGDNAKNSVYLQMNSLRAEDTAVYYCARGSNWFDPWGQGTLVTVSS VL: ETVMTQSPAILSVSPGERATLSCRASQSVYSNLAWYQQKLGQAPRLLIYDASTRATGIPARFSGSGSGTEFTLTISSLQSEDFAVYYCQQYNNWPITFGQGTRLEIK
OD450: 0.23

Now look at this one.
-- ask Which measured OD450 value corresponds to 57F4E5 fully human TIM-3 antibody (human IgG4, kappa) (antibody, V domains shown) VH: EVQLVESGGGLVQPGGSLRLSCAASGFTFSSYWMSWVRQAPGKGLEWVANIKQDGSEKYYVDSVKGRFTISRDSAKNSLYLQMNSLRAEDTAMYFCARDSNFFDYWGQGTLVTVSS VL: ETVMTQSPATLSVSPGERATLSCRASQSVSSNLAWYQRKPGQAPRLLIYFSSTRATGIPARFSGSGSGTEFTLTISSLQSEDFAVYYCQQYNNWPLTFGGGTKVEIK ?
-- reply 0.23
